System: 993429-296-R-J1-PDC complex spheroid growth, percent test/control
Assay: Anticancer human tumor 993429-296-R-J1-PDC patient-derived uterine sarcoma cell line growth inhibition [Asc]
Conditions: second compound 0.316 µM; first compound 0.316 µM; stronger effect = lower value
Collected viability, T/C values appear next to each entry.
MEASURED PROPERTY: viability, T/C (%)

molecule="CCN1CCN(Cc2ccc(Nc3ncc(F)c(-c4cc(F)c5nc(C)n(C(C)C)c5c4)n3)nc2)CC1 + Cc1c(S(C)(=O)=O)c(-c2cc(F)cc(N3CCN(c4ccc(NS(=O)(=O)c5ccc(NC(CCN6CCC(C(=O)OCCCP(=O)(O)O)CC6)CSc6ccccc6)c(S(=O)(=O)C(F)(F)F)c5)cc4)CC3)c2)c(-c2ccc(Cl)cc2)n1C(C)C" reported_result=64.3
molecule="CCN1CCN(Cc2ccc(Nc3ncc(F)c(-c4cc(F)c5nc(C)n(C(C)C)c5c4)n3)nc2)CC1 + CNC(C)C(=O)NC1CN(S(=O)(=O)c2cccc(S(=O)(=O)N3CCC4CCC(C(=O)NC(c5ccccc5)c5ccccc5)N4C(=O)C(NC(=O)C(C)NC)C3)c2)CCC2CCC(C(=O)NC(c3ccccc3)c3ccccc3)N2C1=O" reported_result=69

---

System: 993429-296-R-J1-PDC complex spheroid growth, percent test/control
Experiment: Anticancer human tumor 993429-296-R-J1-PDC cell line growth inhibition [Asc];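 also: spheroids exposed to compounds for seven days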
Details: curve of first compound; second compound 3 µM
The entries below come with measured IC50 values attached.
MEASURED PROPERTY: IC50

molecule="CCN1CCN(Cc2ccc(Nc3ncc(F)c(-c4cc(F)c5nc(C)n(C(C)C)c5c4)n3)nc2)CC1 + CCN1C(C(=O)NC23CCC(C(=O)O)(CC2)CC3)C(c2cccc(Cl)c2F)C2(C(=O)Nc3cc(Cl)ccc32)C12CCCCC2" reported_result="> 1000 nM"
molecule="C=CC(=O)N1CCN(c2nc(=O)n(-c3c(C)ccnc3C(C)C)c3nc(-c4c(O)cccc4F)c(F)cc23)C(C)C1 (stereo not drawn) + CCN1C(C(=O)NC23CCC(C(=O)O)(CC2)CC3)C(c2cccc(Cl)c2F)C2(C(=O)Nc3cc(Cl)ccc32)C12CCCCC2" reported_result="> 10000 nM"
molecule="O=C(c1ccc(F)c(F)c1Nc1ccc(I)cc1F)N1CC(O)([C@@H]2CCCCN2)C1 + CCN1C(C(=O)NC23CCC(C(=O)O)(CC2)CC3)C(c2cccc(Cl)c2F)C2(C(=O)Nc3cc(Cl)ccc32)C12CCCCC2" reported_result="19.3 nM"

---

Test system: 993429-296-R-J1-PDC complex spheroid growth, percent test/control
Assay: Anticancer human tumor 993429-296-R-J1-PDC cell line growth inhibition [Asc];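 also: spheroids exposed to compounds for seven days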
Conditions: second compound 0.0949 µM; first compound 3.16 µM; stronger effect = lower value
MEASURED PROPERTY: viability, T/C

compound="O=C(c1cc(Cc2n[nH]c(=O)c3ccccc23)ccc1F)N1CCN(C(=O)C2CC2)CC1 + CCN1C(C(=O)NC23CCC(C(=O)O)(CC2)CC3)C(c2cccc(Cl)c2F)C2(C(=O)Nc3cc(Cl)ccc32)C12CCCCC2" measured_property="viability, T/C" reported_result=61.9%
compound="C=C(F)C(=O)N1CCN(c2nc(OCC3CCCN3C)nc3c2CCN(c2cccc4cccc(Cl)c24)C3)CC1CC#N (centres undefined) + CCN1C(C(=O)NC23CCC(C(=O)O)(CC2)CC3)C(c2cccc(Cl)c2F)C2(C(=O)Nc3cc(Cl)ccc32)C12CCCCC2" measured_property="viability, T/C" reported_result=8.82%
compound="C=CC(=O)N1CCN(c2nc(=O)n(-c3c(C)ccnc3C(C)C)c3nc(-c4c(O)cccc4F)c(F)cc23)C(C)C1 (centres undefined) + CCN1C(C(=O)NC23CCC(C(=O)O)(CC2)CC3)C(c2cccc(Cl)c2F)C2(C(=O)Nc3cc(Cl)ccc32)C12CCCCC2" measured_property="viability, T/C" reported_result=96.5%
compound="C#Cc1c(F)ccc2cc(O)cc(-c3ncc4c(N5CC6CCC(C5)N6)nc(OCC56CCCN5CC(F)C6)nc4c3F)c12 (centres undefined) + CCN1C(C(=O)NC23CCC(C(=O)O)(CC2)CC3)C(c2cccc(Cl)c2F)C2(C(=O)Nc3cc(Cl)ccc32)C12CCCCC2" measured_property="viability, T/C" reported_result=86.2%
